assaySystem: T1, orthogonal hCD122 receptor (hoRb), hCD122 with H133D and Y134F (human, UniProt P14784 27-550); note: reference of the scale not given here
T1 sequence: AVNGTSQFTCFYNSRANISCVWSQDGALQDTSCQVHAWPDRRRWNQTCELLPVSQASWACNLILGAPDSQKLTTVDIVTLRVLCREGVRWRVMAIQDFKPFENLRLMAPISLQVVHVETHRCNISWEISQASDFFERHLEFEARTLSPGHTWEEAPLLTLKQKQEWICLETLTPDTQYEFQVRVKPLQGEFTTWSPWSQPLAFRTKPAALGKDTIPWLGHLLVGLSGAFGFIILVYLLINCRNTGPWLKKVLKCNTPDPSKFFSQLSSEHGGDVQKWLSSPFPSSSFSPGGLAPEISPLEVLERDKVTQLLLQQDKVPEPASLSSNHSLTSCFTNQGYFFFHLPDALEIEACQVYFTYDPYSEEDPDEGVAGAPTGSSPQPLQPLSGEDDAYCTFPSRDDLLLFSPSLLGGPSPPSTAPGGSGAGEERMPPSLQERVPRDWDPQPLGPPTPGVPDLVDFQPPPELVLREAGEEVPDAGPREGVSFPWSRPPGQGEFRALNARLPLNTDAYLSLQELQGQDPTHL
protocolDescription: cell-based or functional assay
Relative Proliferation Fold Change 3F8 1:2 values by entry
Use fold as the unit, but write only the number.

binder: SQVLKF (ligand) APTSSSTKKTQLQLSQLLVLLKFILNGINNYKNPKLTRMLTFKFYMPKKATELKHLQCLEEELKPLEEVLNLAQSKNFHLRPRDLISNINVIVLELKGSETTFMCEYADETATIVEFLNRWITFCQSIISTLT
observedResult: 42.8

binder: I92F, SQVLKA (ligand) APTSSSTKKTQLQLSQLLVLLKAILNGINNYKNPKLTRMLTFKFYMPKKATELKHLQCLEEELKPLEEVLNLAQSKNFHLRPRDLISNINVFVLELKGSETTFMCEYADETATIVEFLNRWITFCQSIISTLT
observedResult: 80.2

Data request, read-out Relative Proliferation Fold Change 3F8 1:2, for KQVLKA (ligand) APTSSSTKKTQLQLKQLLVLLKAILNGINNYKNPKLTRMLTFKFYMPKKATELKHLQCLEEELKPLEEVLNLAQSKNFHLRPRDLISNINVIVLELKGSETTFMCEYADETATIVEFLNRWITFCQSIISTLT
4.86

Data request, read-out Relative Proliferation Fold Change 3F8 1:2, for L18E, SQVLKA (ligand) APTSSSTKKTQLQLSQLEVLLKAILNGINNYKNPKLTRMLTFKFYMPKKATELKHLQCLEEELKPLEEVLNLAQSKNFHLRPRDLISNINVIVLELKGSETTFMCEYADETATIVEFLNRWITFCQSIISTLT
9.99

Attribution: patent US20210196796A1
